# tgt: T1, hEGFR ECR-His6-Avi-Biotin (human, UniProt P00533 25-642, biotinylated on the Avi tag using BirA ligase)
# T1 construct: also called WT hEGFR ECR; human EGFR ECD; not shown: His6-Avi tag
# assay: ELISA: hEGFR ECR on plate, IgG1 titrated, anti-hFc-HRP; pH 6.5 [table]
Please provide measured pEC50 for the entries that follow.
Units for pEC50: none; it is -log10 of a concentration expressed in mol/L.

Record request: pEC50 value, item G532 (human IgG1 form) (antibody, V domains shown) VH: QVQLVQSGAEVKRPGSSVKVSCKASGGISDGSAISWVRQAPGQGLEWMGGIRWWGGITNYAQKFQGRVTITADESTSTAYMELSSLRSEDTAVYYCARDSSLGYYDYFDYWGQGTLVTVSS VL: QPVLTQPPSVSAAPGQTARITCGGNNIGEKEVQWYQQRPGQAPVLVIYYDDDRPSGIPERFSGSNSGNTAALTINSVEAGDEADYYCQAWDDYDPVVFGGGTQLTVLG
9.16

Record request: pEC50 value, item G532^V (human IgG1 form) (antibody, V domains shown, G532 with LCDR1 E32H and LCDR2 D52S, D53T) VH: QVQLVQSGAEVKRPGSSVKVSCKASGGISDGSAISWVRQAPGQGLEWMGGIRWWGGITNYAQKFQGRVTITADESTSTAYMELSSLRSEDTAVYYCARDSSLGYYDYFDYWGQGTLVTVSS VL: QPVLTQPPSVSAAPGQTARITCGGNNIGEKHVQWYQQRPGQAPVLVIYYDSTRPSGIPERFSGSNSGNTAALTINSVEAGDEADYYCQAWDDYDPVVFGGGTQLTVLG
9.50

Record request: pEC50 value, item G5V2 (human IgG1 form) (antibody, V domains shown) VH: QVQLVQSGAEVKRPGSSVKVSCKASGGISDGSAISWVRQAPGQGLEWMGGIYFFNGNTNYAQKFQGRVTITADESTSTAYMELSSLRSEDTAVYYCARDSSLGYYDYFDYWGQGTLVTVSS VL: QPVLTQPPSVSAAPGQTARITCGGNNIGEKYVQWYQQRPGQAPVLVIYYDDDRPSGIPERFSGSNSGNTAALTINSVEAGDEADYYCQAWDDYDPVVFGGGTQLTVLG
9.30

Record request: pEC50 value, item G532^Ctrl (human IgG1 form) (antibody, V domains shown, G532^V with LCDR1 K31N; also called non-pH-dependent variant of G532) VH: QVQLVQSGAEVKRPGSSVKVSCKASGGISDGSAISWVRQAPGQGLEWMGGIRWWGGITNYAQKFQGRVTITADESTSTAYMELSSLRSEDTAVYYCARDSSLGYYDYFDYWGQGTLVTVSS VL: QPVLTQPPSVSAAPGQTARITCGGNNIGENHVQWYQQRPGQAPVLVIYYDSTRPSGIPERFSGSNSGNTAALTINSVEAGDEADYYCQAWDDYDPVVFGGGTQLTVLG
9.08
